target.under.test: UniProt P19327
experimental.protocol: 5HT1A receptor binding affinity (procedure of Gozlan et al.)
condition: average of multiple determinations where number in parentheses is given; read-out: IC50 (5HT1A Binding Affinity)
Structures can show the parent of a compound that is named as a salt.
The entries below are paired with their reported IC50.
Expressed in nM, but write only the number.

Recorded results for 2 molecules are shown here.
{"molecule": "CON(C)C(=O)c1cc2c(N3CCN(CCc4ccccc4)CC3)cccc2s1 [Example 40, hydrochloride]", "target.under.test": "UniProt P19327", "IC50 (nM)": 2.4}
{"molecule": "O=C(NCc1ccccc1)c1cc2c(N3CCN(CCc4ccccc4)CC3)cccc2s1 [Example 13, monohydrochloride]", "target.under.test": "UniProt P19327", "IC50 (nM)": 27}

Please provide the recorded IC50 for OCc1cc2c(N3CCN(CCCc4ccccc4)CC3)cccc2s1 [Example 15, monohydrochloride] , tested on UniProt P19327. 1.8

----------
target.under.test: 5HT1A receptor (Rattus norvegicus)
Sequence (P19327 1-422): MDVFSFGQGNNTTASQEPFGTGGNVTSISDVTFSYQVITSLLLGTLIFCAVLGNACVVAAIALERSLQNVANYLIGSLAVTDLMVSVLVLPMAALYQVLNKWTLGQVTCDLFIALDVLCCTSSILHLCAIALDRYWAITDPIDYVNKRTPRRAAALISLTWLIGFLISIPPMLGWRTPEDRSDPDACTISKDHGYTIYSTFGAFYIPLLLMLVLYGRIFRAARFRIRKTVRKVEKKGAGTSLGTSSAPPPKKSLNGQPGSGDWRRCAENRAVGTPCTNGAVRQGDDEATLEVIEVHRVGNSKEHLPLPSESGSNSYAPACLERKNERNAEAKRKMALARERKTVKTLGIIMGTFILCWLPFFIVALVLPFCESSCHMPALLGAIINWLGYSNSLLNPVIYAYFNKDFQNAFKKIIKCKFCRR
experimental.protocol: 5HT1A receptor binding affinity (procedure of Gozlan et al.)
condition: read-out: IC50 (5HT1A Binding Affinity); average of multiple determinations where number in parentheses is given
measured.attribute: IC50 (nM)
// note: answer is a bare numeric in nM

Give the reported IC50 for COCc1cc2c(N3CCN(CCc4ccc(F)cc4)CC3)cccc2s1 [Example 46, hydrate] (system: 5HT1A receptor (Rattus norvegicus)). 4

----------
target.under.test: 5HT1A receptor (Rattus norvegicus, UniProt P19327)
experimental.protocol: 5HT1A receptor binding affinity (procedure of Gozlan et al.)
condition: average of multiple determinations where number in parentheses is given; read-out: IC50 (5HT1A Binding Affinity)
Counter-ions that a name gives are not always drawn.
measured.attribute: pIC50
pIC50 field: float, defined as -log10 of concentration (mol/L).

Worked examples, 6 molecules total:
{"molecule": "CCCN1CCN(c2cccc3sc(C(=O)OCC)cc23)CC1 [Example 34, hydrochloride]", "pIC50": 6.98}
{"molecule": "O=C(Nc1ccccc1)c1cc2c(N3CCN(CCc4ccccc4)CC3)cccc2s1 [Example 12, monohydrochloride]", "pIC50": 7.07}
{"molecule": "CCOC(=O)c1cc2c(N3CCN(CCc4ccc(Cl)cc4)CC3)cccc2s1 [Example 18, monohydrochloride]", "pIC50": 7.28}
{"molecule": "O=[N+]([O-])c1ccc(CCN2CCN(c3cccc4sc(CO)cc34)CC2)cc1 [Example 50, hydrochloride]", "pIC50": 9.00}
{"molecule": "NC(=O)c1cc2c(N3CCN(CCCc4ccccc4)CC3)cccc2s1 [Example 17, monohydrochloride]", "pIC50": 9.00}
{"molecule": "CCOC(=O)c1cc2c(N3CCN(CCc4ccc(F)cc4)CC3)cccc2s1 [Example 22, monohydrochloride]", "pIC50": 8.13}

// next entry
What measured pIC50 is associated with N#Cc1cc2c(N3CCN(CCCc4ccccc4)CC3)cccc2s1 [Example 16, monohydrochloride] on 5HT1A receptor (Rattus norvegicus, UniProt P19327)? 7.68

----------
target.under.test: 5HT1D receptor (Bos taurus, UniProt F1MGM3)
Construct: from tissue
Sequence (F1MGM3 1-403): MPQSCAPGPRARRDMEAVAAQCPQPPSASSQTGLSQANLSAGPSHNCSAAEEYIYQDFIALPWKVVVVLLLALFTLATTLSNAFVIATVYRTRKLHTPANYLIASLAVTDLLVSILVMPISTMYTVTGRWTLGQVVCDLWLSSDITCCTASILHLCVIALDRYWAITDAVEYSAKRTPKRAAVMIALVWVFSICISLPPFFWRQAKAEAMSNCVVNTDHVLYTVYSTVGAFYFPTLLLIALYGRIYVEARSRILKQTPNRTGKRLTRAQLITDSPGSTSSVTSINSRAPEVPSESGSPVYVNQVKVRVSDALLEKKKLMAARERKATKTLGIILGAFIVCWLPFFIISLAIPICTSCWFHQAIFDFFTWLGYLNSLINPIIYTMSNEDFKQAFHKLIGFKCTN
experimental.protocol: 5HT1D receptor binding affinity (procedure of Peroutka et al.)
Structures can show the parent of a compound that is named as a salt.
Consider the following compounds and their measured pIC50 readings.
Keep it numeric: pIC50 is minus log10 of the concentration in mol/L.

{"compound": "Cl.NC(=O)c1cc2c(N3CCN(CCc4ccc(Cl)cc4)CC3)cccc2s1 [Example 21, monohydrochloride]", "pIC50": 7.85}
{"compound": "Cc1c(CO)sc2cccc(N3CCN(CCc4ccccc4)CC3)c12 [Example 33, hydrate]", "pIC50": 7.51}
{"compound": "CN1CCN(c2cccc3sc(CO)cc23)CC1 [Example 39, hydrochloride]", "pIC50": 7.80}

What pIC50 value was documented for this compound, OCc1cc2c(N3CCN(CCc4ccc(F)cc4)CC3)cccc2s1 ? 8.52

----------
target.under.test: 5HT1A receptor (Rattus norvegicus, UniProt P19327)
experimental.protocol: 5HT1A receptor binding affinity (procedure of Gozlan et al.)
Procedure: In the following examples, the compounds binding affinity for both the 5HT1A receptor and 5HT1D receptors is reported. The compounds affinity for the 5HT1D site was determined by the binding procedure of Peroutka et al as reported in European Journal of Pharmacology, Vol. 163 at pages 133-166 (1989). The compounds affinity for the 5HT1A receptor was determined by the procedure of Gozlan et al., as reported in Nature, Volume 305, at pages 140-142 (1983). […]
Structures can show the parent of a compound that is named as a salt.
pIC50 for assorted molecules
Answer as the number alone; pIC50 is minus log10 of concentration in mol/L.

These solved cases illustrate the format of a correct answer.
{"molecule": "NC(=O)c1cc2c(N3CCN(CCc4ccc(F)cc4)CC3)cccc2s1 [Example 25, monohydrochloride]", "result.value": 9.10}
{"molecule": "N#Cc1cc2c(N3CCN(CCc4ccc(Cl)cc4)CC3)cccc2s1 [Example 20, monohydrochloride]", "result.value": 7.89}

Which pIC50 is reported for this molecule? N#Cc1cc2c(N3CCN(CCc4ccc(F)cc4)CC3)cccc2s1 [Example 24, monohydrochloride] 8.00

GET /values?readout=pIC50&item= CC(C)(O)c1cc2c(N3CCN(CCc4ccccc4)CC3)cccc2s1 [Example 41, hydrochloride hemihydrate] 8.40

----------
target.under.test: 5HT1A receptor (Rattus norvegicus, UniProt P19327)
experimental.protocol: 5HT1A receptor binding affinity (procedure of Gozlan et al.)
Structures can show the parent of a compound that is named as a salt.
Item-by-item account of pIC50
Kindly note that pIC50 refers to -log10 of the concentration in mol/L and answer with the value alone.

// solved cases for pIC50 follow
{"molecule": "Cl.NC(=O)c1cc2c(N3CCN(CCc4ccc(Cl)cc4)CC3)cccc2s1 [Example 21, monohydrochloride]", "pIC50": 8.70}
{"molecule": "Cc1c(CO)sc2cccc(N3CCN(CCc4ccccc4)CC3)c12 [Example 33, hydrate]", "pIC50": 8.05}
{"molecule": "COCc1cc2c(N3CCN(CCc4ccccc4)CC3)cccc2s1 [Example 37, hydrochloride]", "pIC50": 8.30}

What measured pIC50 goes with Cl.NC(=O)c1cc2c(N3CCN(CCc4ccccc4)CC3)cccc2s1 [Example 9, monohydrochloride] ? 9.30

Given the entry NCc1cc2c(N3CCN(CCc4ccccc4)CC3)cccc2s1 [Example 55, dihydrochloride] , report its measured pIC50. 8.52

Find the recorded pIC50 belonging to Cc1ccc(CCN2CCN(c3cccc4sc(CO)cc34)CC2)cc1 [Example 27, monohydrochloride] and report it. 8.52

Bench note: what pIC50 did COc1ccc(CCN2CCN(c3cccc4sc(CO)cc34)CC2)cc1 [Example 31, monohydrochloride] show? 9.00

Look at this molecule and give its reported pIC50. Cc1ccc(CCN2CCN(c3cccc4sc(C#N)cc34)CC2)cc1 [Example 28, monohydrochloride] 8.40

----------
Listed below: Emax values for each entry.
target.under.test: 5-HT1D receptors (Canis lupus familiaris, UniProt P79250)
Sequence (P79250 whole entry): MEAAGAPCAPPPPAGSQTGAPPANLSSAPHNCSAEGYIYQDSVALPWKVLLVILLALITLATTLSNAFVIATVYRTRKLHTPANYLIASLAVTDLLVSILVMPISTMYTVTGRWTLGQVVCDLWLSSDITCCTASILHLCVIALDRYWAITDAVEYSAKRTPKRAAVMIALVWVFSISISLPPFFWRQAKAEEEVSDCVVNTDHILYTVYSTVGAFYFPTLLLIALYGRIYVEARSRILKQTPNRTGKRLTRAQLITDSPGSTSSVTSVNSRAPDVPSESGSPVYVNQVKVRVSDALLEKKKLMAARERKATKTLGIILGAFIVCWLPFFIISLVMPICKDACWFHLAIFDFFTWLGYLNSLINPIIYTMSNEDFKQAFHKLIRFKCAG
Parameters: species or system dog (canine)
condition: dog; canine saphenous vein; printed in parentheses after pA2; read-out: intrinsic (agonist) activity, saphenous vein preparation
Where a name gives a salt, the structure may show the parent alone.
Record the value in %, omitting the unit from your answer.

Use these answered entries as a reference point.
{"compound": "O=C(Nc1ccccc1)c1cc2c(N3CCN(CCc4ccccc4)CC3)cccc2s1 [Example 12, monohydrochloride]", "Emax / %": 0}
{"compound": "O=C(NCc1ccccc1)c1cc2c(N3CCN(CCc4ccccc4)CC3)cccc2s1 [Example 13, monohydrochloride]", "Emax / %": 0}
{"compound": "CN(C)C(=O)c1cc2c(N3CCN(CCc4ccccc4)CC3)cccc2s1 [Example 11, monohydrochloride]", "Emax / %": 2}

We now examine a further compound.
Give its Emax value. Item: CON(C)C(=O)c1cc2c(N3CCN(CCc4ccccc4)CC3)cccc2s1 [Example 40, hydrochloride] 3
